Entries and their measured EC50 follow.
Tested on: human polymorphonuclear neutrophils (hPMN)
Assay: Ca2+ flux assay in human neutrophils
Format: cell-based
Conditions: Homo sapiens, Polymorphonuclear neutrophil, read-out: hPMN EC50
Lab book: enter the figure in nM, no units written.

>  <compound>
COc1cccc(Nc2c(C(C)=O)c(C)nn(CC(=O)Nc3ccc(Br)cc3)c2=O)c1 [Compound 8a]

>  <EC50 / nM>
36

$$$$

Data request: Quote EC50 reported for COC(=O)c1c(C)nn(CC(=O)Nc2ccc(Br)cc2)c(=O)c1Nc1cccc(OC)c1 [Compound 19a] please.
Data returned: 22100

Data request: Quote EC50 reported for Cc1nn(CC(=O)Nc2ccc(Br)cc2)c(=O)c(N)c1C(=O)C=CN(C)C [Compound 24] please.
Data returned: 9300

Data request: Quote EC50 reported for COc1cccc(Nc2cc(C)nn(CC(=O)Nc3ccc(Br)cc3)c2=O)c1 [Compound 29a] please.
Data returned: 560

Data request: Quote EC50 reported for Cc1nn(CC(=O)Nc2ccc(Br)cc2)c(=O)c(N)c1-c1ccn(C)n1 [Compound 26] please.
Data returned: 3500
